biological target: T1, Human PD-1 protein with histidine and avi tags (ACRO Biosystems, PD1-H82E4) (human, UniProt Q15116 25-167); assay: BLI; ratio of kdis, apparently PR005090 over the variant
T1 construct: Captured on streptavidin (SA) sensors in the BLI assay; not shown: histidine and avi tags
T1 sequence (Q15116 25-167 limits assumed): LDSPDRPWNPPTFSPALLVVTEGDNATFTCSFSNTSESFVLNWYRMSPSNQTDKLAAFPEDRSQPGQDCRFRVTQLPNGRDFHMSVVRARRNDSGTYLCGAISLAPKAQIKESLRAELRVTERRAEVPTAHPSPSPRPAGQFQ
value_type: kdis ratio

- PR005142 (VHH, Monovalent single-domain (VH) variant of PR002481 with Flag-6His tag) VHH: EVQLVETGGGLIQPGGSLRLSCAASGFNVSFYYMSWVRQAPGKGREWVSIIDKGGSGYYAASVKGRFTISRDNSKNRLYLQMNSLRAEDTAMYYCARATEVREKNGYNYPFNYWGQGTLVTVSS: 20.6
- PR005097 (VHH, Monovalent single-domain (VH) variant of PR002481 with Flag-6His tag) VHH: EVQLVETGGGLIQPGGSLRLSCAASGFNVSSHYMSWVRQAPGKGREWVSIIDGGGSTYYADSVKGRFTISRDNSKNRLYLQMNSLRAEDTAMYYCARATAVREKNGYNYPFNYWGQGTLVTVSS: 1.46
- PR005099 (VHH, Monovalent single-domain (VH) variant of PR002481 with Flag-6His tag) VHH: EVQLVETGGGLIQPGGSLRLSCAASGFNVSSHYMSWVRQAPGKGREWVSIIDSAGSTYYADSVKGRFTISRDNSKNRLYLQMNSLRAEDTAMYYCARATAVAEKNGYNYPFNYWGQGTLVTVSS: 2.51
